The reported numbers originate from ChEMBL document CHEMBL4350960.

System: Pseudomonas aeruginosa
Assay: Antibacterial activity against Pseudomonas aeruginosa clinical isolates measured after 16 to 20 hrs by broth microdilution method
Type: functional
Readout type: MIC90 (µg/mL)
Dear colleague, please return just the value in µg/mL, with no unit written.

-- ask Using known records, supply MIC90 for `O=C(NNC(=O)[C@@H]1CC[C@@H]2CN1C(=O)N2OS(=O)(=O)O)[C@@H]1CCCNC1`
-- reply 16

-- ask Using known records, supply MIC90 for NC[C@@H]1C=C(c2cnco2)[C@@H]2CN1C(=O)N2OS(=O)(=O)O (relative stereo)
-- reply 16

---

Listing of recorded MIC by entry.
System: Pseudomonas aeruginosa
Experiment: Antibacterial activity against Pseudomonas aeruginosa UFR49 measured after 16 to 20 hrs by broth microdilution method
Type: functional

Worked examples, 3 molecules total:
{"Molecule": "O=C1N2CCCC(C2)N1OS(=O)(=O)[O-].[Na+] (stereo unspecified)", "Readout value": "> 32 µg/mL"}
{"Molecule": "O=C1N2CC=CC(C2)N1OS(=O)(=O)[O-].[Na+] (stereo unspecified)", "Readout value": "> 32 µg/mL"}
{"Molecule": "O=C1N2CC=C(c3cnco3)C(C2)N1OS(=O)(=O)[O-].[Na+] (stereo unspecified)", "Readout value": "> 32 µg/mL"}

-- ask Return reported MIC for target or system Pseudomonas aeruginosa, item O=C1N2CC=C(c3ccncc3)C(C2)N1OS(=O)(=O)[O-].[Na+] (stereo unspecified) .
-- reply > 32 µg/mL

-- ask Return reported MIC for target or system Pseudomonas aeruginosa, item CC(C)(O/N=C(\C(=O)N[C@@H]1C(=O)N2C(C(=O)[O-])=C(C[n+]3ccccc3)CS[C@H]12)c1csc(N)n1)C(=O)O [CEFTAZIDIME] .
-- reply 64 µg/mL

-- ask Return reported MIC for target or system Pseudomonas aeruginosa, item O=C1N2CC=C(c3cccnc3)C(C2)N1OS(=O)(=O)[O-].[Na+] (stereo unspecified) .
-- reply > 32 µg/mL

-- ask Return reported MIC for target or system Pseudomonas aeruginosa, item O=C1N2CC=C(c3ccccn3)C(C2)N1OS(=O)(=O)[O-].[Na+] (stereo unspecified) .
-- reply > 32 µg/mL

-- ask Return reported MIC for target or system Pseudomonas aeruginosa, item NC(=O)[C@@H]1CC[C@@H]2CN1C(=O)N2OS(=O)(=O)[O-].[Na+] [AVIBACTAM SODIUM] .
-- reply > 32 µg/mL

-- ask Return reported MIC for target or system Pseudomonas aeruginosa, item O=C1N2CC=C(c3ncco3)C(C2)N1OS(=O)(=O)[O-].[Na+] (stereo unspecified) .
-- reply > 32 µg/mL

-- ask Return reported MIC for target or system Pseudomonas aeruginosa, item NC[C@@H]1C=C(c2cnco2)[C@@H]2CN1C(=O)N2OS(=O)(=O)O (relative stereo) .
-- reply 2 µg/mL

-- ask Return reported MIC for target or system Pseudomonas aeruginosa, item O=C1N2CC=C(c3cnoc3)C(C2)N1OS(=O)(=O)[O-].[Na+] (stereo unspecified) .
-- reply > 32 µg/mL

---

Target: Peptidoglycan D,D-transpeptidase MrdA (Escherichia coli K-12, UniProt P0AD65)
Sequence (P0AD65 whole entry): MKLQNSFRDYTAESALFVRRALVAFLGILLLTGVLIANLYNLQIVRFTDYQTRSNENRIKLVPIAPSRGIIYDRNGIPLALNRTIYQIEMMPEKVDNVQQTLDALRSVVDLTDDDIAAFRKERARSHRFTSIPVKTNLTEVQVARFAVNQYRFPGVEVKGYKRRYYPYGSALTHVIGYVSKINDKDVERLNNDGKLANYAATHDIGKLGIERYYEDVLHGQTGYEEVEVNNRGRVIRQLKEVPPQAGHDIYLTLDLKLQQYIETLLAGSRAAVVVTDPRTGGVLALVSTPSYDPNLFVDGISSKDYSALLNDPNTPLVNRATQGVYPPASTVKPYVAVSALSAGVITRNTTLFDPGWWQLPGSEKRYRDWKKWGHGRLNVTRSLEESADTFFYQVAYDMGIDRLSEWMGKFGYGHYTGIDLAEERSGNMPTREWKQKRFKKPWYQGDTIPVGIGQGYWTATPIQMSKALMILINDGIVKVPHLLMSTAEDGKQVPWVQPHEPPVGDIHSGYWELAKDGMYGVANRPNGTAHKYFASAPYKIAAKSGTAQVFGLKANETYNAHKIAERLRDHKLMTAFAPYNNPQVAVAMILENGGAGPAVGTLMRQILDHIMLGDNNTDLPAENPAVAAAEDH
Listing of recorded pIC50 by entry.
Reminder that pIC50 means the negative base-10 logarithm of the concentration expressed in mol/L.

Worked examples, 2 molecules total:
{"Molecule": "NC(=O)[C@@H]1CC[C@@H]2CN1C(=O)N2OS(=O)(=O)[O-].[Na+] [AVIBACTAM SODIUM]", "pIC50": 6.23}
{"Molecule": "O=C1N2CC=C(c3cnoc3)C(C2)N1OS(=O)(=O)[O-].[Na+] (stereo not drawn)", "pIC50": 7.77}

-- ask Using known records, supply pIC50 for O=C1N2CC=C(c3cnco3)C(C2)N1OS(=O)(=O)[O-].[Na+] (stereo not drawn)
-- reply 7.60

---

Target: Penicillin-binding protein 1A (Escherichia coli K-12) (UniProt P02918)
Sequence (P02918 whole entry): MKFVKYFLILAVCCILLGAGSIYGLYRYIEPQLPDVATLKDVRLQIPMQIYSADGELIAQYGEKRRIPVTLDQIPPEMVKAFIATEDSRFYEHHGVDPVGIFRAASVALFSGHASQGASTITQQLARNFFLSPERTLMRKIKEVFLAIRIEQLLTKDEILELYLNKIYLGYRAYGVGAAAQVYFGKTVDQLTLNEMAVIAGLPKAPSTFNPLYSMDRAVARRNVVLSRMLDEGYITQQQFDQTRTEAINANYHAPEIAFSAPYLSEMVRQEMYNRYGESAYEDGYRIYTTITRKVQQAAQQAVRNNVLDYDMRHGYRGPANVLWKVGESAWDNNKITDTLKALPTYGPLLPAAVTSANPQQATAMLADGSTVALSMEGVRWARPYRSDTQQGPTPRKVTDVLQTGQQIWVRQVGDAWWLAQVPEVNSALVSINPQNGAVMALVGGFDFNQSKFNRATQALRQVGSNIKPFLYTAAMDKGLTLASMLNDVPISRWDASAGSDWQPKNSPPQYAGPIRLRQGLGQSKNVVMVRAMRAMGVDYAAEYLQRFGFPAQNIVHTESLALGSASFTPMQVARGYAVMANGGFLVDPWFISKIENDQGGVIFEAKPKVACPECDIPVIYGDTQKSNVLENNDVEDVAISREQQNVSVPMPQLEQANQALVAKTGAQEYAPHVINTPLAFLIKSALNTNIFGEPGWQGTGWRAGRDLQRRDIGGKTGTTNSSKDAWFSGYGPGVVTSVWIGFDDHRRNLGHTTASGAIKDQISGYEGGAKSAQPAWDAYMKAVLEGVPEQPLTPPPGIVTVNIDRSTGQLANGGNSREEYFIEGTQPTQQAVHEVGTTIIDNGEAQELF
Experiment: Inhibition of Escherichia coli PBP1a
Calls of active or inactive are those of the source. No cut-off for these calls is given here.
Readout type: inhibition

{"Molecule": "O=C1N2CC=C(c3cnco3)C(C2)N1OS(=O)(=O)[O-].[Na+] (configuration not stated)", "inhibition": "inactive"}
{"Molecule": "O=C1N2CC=C(c3ccccn3)C(C2)N1OS(=O)(=O)[O-].[Na+] (configuration not stated)", "inhibition": "inactive"}
{"Molecule": "NC[C@@H]1C=C(c2cnco2)[C@@H]2CN1C(=O)N2OS(=O)(=O)O (relative stereo)", "inhibition": "inactive"}
{"Molecule": "O=C1N2CCCC(C2)N1OS(=O)(=O)[O-].[Na+] (configuration not stated)", "inhibition": "inactive"}
{"Molecule": "O=C1N2CC=C(c3cccnc3)C(C2)N1OS(=O)(=O)[O-].[Na+] (configuration not stated)", "inhibition": "inactive"}

-- ask Using known records, supply inhibition for O=C1N2CC=CC(C2)N1OS(=O)(=O)[O-].[Na+] (configuration not stated)
-- reply inactive

-- ask Using known records, supply inhibition for O=C1N2CC=C(c3ccncc3)C(C2)N1OS(=O)(=O)[O-].[Na+] (configuration not stated)
-- reply inactive

---

Test system: Escherichia coli
Test: Antibacterial activity against Escherichia coli clinical isolates measured after 16 to 20 hrs by broth microdilution method
Format: functional
Listing of recorded MIC50 by entry.
Dear colleague, please return just the value in µg/mL, with no unit written.

{"Molecule": "O=C(NNC(=O)[C@@H]1CC[C@@H]2CN1C(=O)N2OS(=O)(=O)O)[C@@H]1CCCNC1", "MIC50, µg/mL": 32}
{"Molecule": "NC(=O)[C@@H]1CC[C@@H]2CN1C(=O)N2OS(=O)(=O)[O-].[Na+] [AVIBACTAM SODIUM]", "MIC50, µg/mL": 32}
{"Molecule": "NC[C@@H]1C=C(c2cnco2)[C@@H]2CN1C(=O)N2OS(=O)(=O)O (relative stereo)", "MIC50, µg/mL": 0.031}

Now consider a different molecule.
-- ask Using known records, supply MIC50 for `C[C@@H](O)[C@H]1C(=O)N2C(C(=O)O)=C(S[C@@H]3CN[C@H](C(=O)N(C)C)C3)[C@H](C)[C@H]12`
-- reply 0.5

---

Tested on: Pseudomonas aeruginosa
Assay: Antibacterial activity against Pseudomonas aeruginosa clinical isolates measured after 16 to 20 hrs by broth microdilution method
Assay type: functional
Listing of recorded MIC50 by entry.
Dear colleague, please return just the value in µg/mL, with no unit written.

Worked examples, 2 compounds total:
{"Compound": "C[C@@H](O)[C@H]1C(=O)N2C(C(=O)O)=C(S[C@@H]3CN[C@H](C(=O)N(C)C)C3)[C@H](C)[C@H]12", "Readout type": "MIC50", "Units of measure": "µg/mL", "Readout value": 8}
{"Compound": "O=C(NNC(=O)[C@@H]1CC[C@@H]2CN1C(=O)N2OS(=O)(=O)O)[C@@H]1CCCNC1", "Readout type": "MIC50", "Units of measure": "µg/mL", "Readout value": 8}

-- ask Using known records, supply MIC50 for NC[C@@H]1C=C(c2cnco2)[C@@H]2CN1C(=O)N2OS(=O)(=O)O (relative stereo)
-- reply 1

---

Listing of recorded MIC90 by entry.
Test system: Pseudomonas aeruginosa
Assay: Antibacterial activity against Pseudomonas aeruginosa clinical isolates measured after 16 to 20 hrs by broth microdilution method
Assay type: functional

Worked examples, 2 compounds total:
{"Compound": "C[C@@H](O)[C@H]1C(=O)N2C(C(=O)O)=C(S[C@@H]3CN[C@H](C(=O)N(C)C)C3)[C@H](C)[C@H]12", "Target under test": "Pseudomonas aeruginosa", "MIC90": "> 32 µg/mL"}
{"Compound": "NC(=O)[C@@H]1CC[C@@H]2CN1C(=O)N2OS(=O)(=O)[O-].[Na+] [AVIBACTAM SODIUM]", "Target under test": "Pseudomonas aeruginosa", "MIC90": "> 32 µg/mL"}

-- ask Using known records, supply MIC90 for `CC(C)(O/N=C(\C(=O)N[C@@H]1C(=O)N2C(C(=O)[O-])=C(C[n+]3ccccc3)CS[C@H]12)c1csc(N)n1)C(=O)O`
-- reply > 32 µg/mL
